B1: library; a variant is named by its letters at N, in order (parent)
chain: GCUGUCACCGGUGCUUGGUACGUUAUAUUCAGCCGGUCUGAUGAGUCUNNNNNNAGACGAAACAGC

# Variants of: B1
# assay-text: normalized RNA/DNA level with ligand (relative to sTRSVctl = 100) (log10 (% of sTRSVctl)); HEK293T overexpressing SLC46A1; ligand concentration (+) RNA-Seq: 6 mM; higher = less ribozyme self-cleavage, higher mRNA level
# condition-notes: with (6R,S)-folinic acid; ligand present: yes
measured-quantity: normalized RNA/DNA level with ligand (log10)
One number for each entry.

Some solved cases for reference:
- ordered-residues: "GCUGUCACCGGUGCUUGGUACGUUAUAUUCAGCCGGUCUGAUGAGUCUCACGGCAGACGAAACAGC [CACGGC]"
  quantitative-result: 2.03
- ordered-residues: "GCUGUCACCGGUGCUUGGUACGUUAUAUUCAGCCGGUCUGAUGAGUCUAUGCUCAGACGAAACAGC [AUGCUC]"
  quantitative-result: 2.03
- ordered-residues: "GCUGUCACCGGUGCUUGGUACGUUAUAUUCAGCCGGUCUGAUGAGUCUGUAUUCAGACGAAACAGC [GUAUUC]"
  quantitative-result: 2.02
- ordered-residues: "GCUGUCACCGGUGCUUGGUACGUUAUAUUCAGCCGGUCUGAUGAGUCUAGCGAUAGACGAAACAGC [AGCGAU]"
  quantitative-result: 2

Look up normalized RNA/DNA level with ligand (log10) for the entries below, preserving their order.
1. GCUGUCACCGGUGCUUGGUACGUUAUAUUCAGCCGGUCUGAUGAGUCUGACAAGAGACGAAACAGC [GACAAG]
2. GCUGUCACCGGUGCUUGGUACGUUAUAUUCAGCCGGUCUGAUGAGUCUACGUUGAGACGAAACAGC [ACGUUG]

[2.01, 2.03]

Look up normalized RNA/DNA level with ligand (log10) for the entries below, preserving their order.
1. GCUGUCACCGGUGCUUGGUACGUUAUAUUCAGCCGGUCUGAUGAGUCUGCAAUAAGACGAAACAGC [GCAAUA]
2. GCUGUCACCGGUGCUUGGUACGUUAUAUUCAGCCGGUCUGAUGAGUCUAACCACAGACGAAACAGC [AACCAC]
3. GCUGUCACCGGUGCUUGGUACGUUAUAUUCAGCCGGUCUGAUGAGUCUAAUGCUAGACGAAACAGC [AAUGCU]
4. GCUGUCACCGGUGCUUGGUACGUUAUAUUCAGCCGGUCUGAUGAGUCUCCCCUCAGACGAAACAGC [CCCCUC]
5. GCUGUCACCGGUGCUUGGUACGUUAUAUUCAGCCGGUCUGAUGAGUCUCACUAAAGACGAAACAGC [CACUAA]

1. 2.03
2. 1.96
3. 2.02
4. 1.99
5. 2.02

Look up normalized RNA/DNA level with ligand (log10) for the entries below, preserving their order.
1. GCUGUCACCGGUGCUUGGUACGUUAUAUUCAGCCGGUCUGAUGAGUCUCUUGCAAGACGAAACAGC [CUUGCA]
2. GCUGUCACCGGUGCUUGGUACGUUAUAUUCAGCCGGUCUGAUGAGUCUCUCCGAAGACGAAACAGC [CUCCGA]

1: 2.03; 2: 2.01

Look up normalized RNA/DNA level with ligand (log10) for the entries below, preserving their order.
1. GCUGUCACCGGUGCUUGGUACGUUAUAUUCAGCCGGUCUGAUGAGUCUUGAUCCAGACGAAACAGC [UGAUCC]
2. GCUGUCACCGGUGCUUGGUACGUUAUAUUCAGCCGGUCUGAUGAGUCUACCACUAGACGAAACAGC [ACCACU]
3. GCUGUCACCGGUGCUUGGUACGUUAUAUUCAGCCGGUCUGAUGAGUCUGUUUGGAGACGAAACAGC [GUUUGG]
4. GCUGUCACCGGUGCUUGGUACGUUAUAUUCAGCCGGUCUGAUGAGUCUCUGUUCAGACGAAACAGC [CUGUUC]

[2.03, 1.99, 2.03, 2.03]

Look up normalized RNA/DNA level with ligand (log10) for the entries below, preserving their order.
1. GCUGUCACCGGUGCUUGGUACGUUAUAUUCAGCCGGUCUGAUGAGUCUACUCAAAGACGAAACAGC [ACUCAA]
2. GCUGUCACCGGUGCUUGGUACGUUAUAUUCAGCCGGUCUGAUGAGUCUCGCUCAAGACGAAACAGC [CGCUCA]
3. GCUGUCACCGGUGCUUGGUACGUUAUAUUCAGCCGGUCUGAUGAGUCUGUCCACAGACGAAACAGC [GUCCAC]
4. GCUGUCACCGGUGCUUGGUACGUUAUAUUCAGCCGGUCUGAUGAGUCUUUUAUAAGACGAAACAGC [UUUAUA]
5. GCUGUCACCGGUGCUUGGUACGUUAUAUUCAGCCGGUCUGAUGAGUCUAGGGGAAGACGAAACAGC [AGGGGA]

[2, 2.04, 2.01, 2, 2.04]

src = the supplement of paper PMC6757056
